Listed here are molecules together with their documented IC50.
# measured on: Jarid1B (Homo sapiens (Human))
# Sequence (Q9UGL1 whole entry, species assumed): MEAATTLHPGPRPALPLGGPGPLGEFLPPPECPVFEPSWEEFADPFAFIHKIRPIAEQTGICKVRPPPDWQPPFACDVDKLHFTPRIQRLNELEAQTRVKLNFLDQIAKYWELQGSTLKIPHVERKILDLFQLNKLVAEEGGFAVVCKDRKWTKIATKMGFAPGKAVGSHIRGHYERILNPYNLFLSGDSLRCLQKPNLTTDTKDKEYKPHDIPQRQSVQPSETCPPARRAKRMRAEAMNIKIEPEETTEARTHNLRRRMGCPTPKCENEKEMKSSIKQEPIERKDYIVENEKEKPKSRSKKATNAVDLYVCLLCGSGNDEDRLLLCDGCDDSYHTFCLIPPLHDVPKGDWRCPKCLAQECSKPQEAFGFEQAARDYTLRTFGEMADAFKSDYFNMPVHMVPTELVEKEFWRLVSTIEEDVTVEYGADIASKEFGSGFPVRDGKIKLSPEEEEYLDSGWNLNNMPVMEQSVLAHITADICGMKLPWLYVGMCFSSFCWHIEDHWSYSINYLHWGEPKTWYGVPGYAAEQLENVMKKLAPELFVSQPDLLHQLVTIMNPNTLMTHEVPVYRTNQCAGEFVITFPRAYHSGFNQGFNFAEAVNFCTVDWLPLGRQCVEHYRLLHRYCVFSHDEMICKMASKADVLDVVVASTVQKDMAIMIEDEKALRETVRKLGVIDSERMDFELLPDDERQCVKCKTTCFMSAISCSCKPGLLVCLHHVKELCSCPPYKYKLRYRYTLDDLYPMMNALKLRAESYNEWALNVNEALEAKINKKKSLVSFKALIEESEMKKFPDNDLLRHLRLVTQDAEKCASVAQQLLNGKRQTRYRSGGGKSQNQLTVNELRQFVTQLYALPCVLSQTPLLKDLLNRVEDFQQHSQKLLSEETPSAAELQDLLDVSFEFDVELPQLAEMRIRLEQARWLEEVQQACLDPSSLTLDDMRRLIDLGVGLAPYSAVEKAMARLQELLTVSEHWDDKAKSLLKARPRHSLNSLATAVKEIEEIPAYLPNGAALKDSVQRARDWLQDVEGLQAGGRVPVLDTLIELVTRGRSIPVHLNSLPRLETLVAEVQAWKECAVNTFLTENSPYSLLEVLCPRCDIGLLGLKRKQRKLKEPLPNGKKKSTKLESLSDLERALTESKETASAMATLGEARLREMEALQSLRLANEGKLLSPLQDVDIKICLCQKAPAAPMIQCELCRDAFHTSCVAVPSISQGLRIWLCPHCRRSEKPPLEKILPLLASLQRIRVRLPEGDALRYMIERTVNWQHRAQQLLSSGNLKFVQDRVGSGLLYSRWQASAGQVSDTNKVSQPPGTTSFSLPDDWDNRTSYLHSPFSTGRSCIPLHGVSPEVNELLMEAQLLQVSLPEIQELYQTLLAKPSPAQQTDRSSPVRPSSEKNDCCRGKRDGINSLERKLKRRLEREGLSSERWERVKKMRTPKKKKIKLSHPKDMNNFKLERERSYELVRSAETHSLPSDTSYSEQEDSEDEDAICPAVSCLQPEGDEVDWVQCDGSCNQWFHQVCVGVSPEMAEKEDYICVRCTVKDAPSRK
# measurement protocol: In vitro enzyme inhibition assay for Jarid1B activity (TR-FRET)
# Format: biochemical
# details: Table 5; one class given per A and B pair
# Protocol: The ability of test compounds to inhibit the activity of Jarid1B was determined in 384-well plate format under the following reaction conditions: 0.8 nM Jarid1B, 300 nM H3K4me3-biotin labeled peptide (Anaspec cat #64357), 2 μM alpha-ketoglutaric acid in assay buffer of 50 mM HEPES, pH7.3, 0.005% Brij35, 0.5 mM TCEP, 0.2 mg/ml BSA, 50 μM sodium L-ascorbate, and 2 μM ammonium iron(II) sulfate. […]

Cc1ccc(N(C)c2ccc3c(c2)CCN[C@@H]3CNc2cnccc2C(=O)O)cc1; ≤ 100 nM

Consider the record given below.
The recorded IC50 for Cc1cc(OCC2CC2)ccc1-c1ccc2c(c1)CCN[C@@H]2CNc1cnccc1C(=O)O is ≤ 100 nM

###

# Tested on: Jurkat cells
# measurement protocol: Jurkat (T-ALL) cell line proliferation assay (Cell-MTS Assay)
# Type: cell-based
# details: Homo sapiens, 168 hr incubation, cell gives A/B enantiomer values, read-out: Cellular IC50
pIC50: −log10 of the molar value.
Listed here are compounds together with their documented pIC50.

Cc1cc(OCC(F)(F)F)ccc1-c1ccc2c(c1)CCN[C@H]2CNc1cnccc1C(=O)O [Example 2B]; 6.00 to 7.00
Cc1cc(OCC(F)(F)F)ccc1-c1ccc2c(c1)CCN[C@@H]2CNc1cnccc1C(=O)O [Example 2A]; 6.00 to 7.00

Consider the record given below.
Cc1ccc(N(C)c2ccc3c(c2)CCN[C@@H]3CNc2cnccc2C(=O)O)cc1 [Example 1A] tested on Jurkat cells gave pIC50: ≥ 7.00

###

Listed here are compounds together with their documented IC50.
# measured on: JMJD2C (Homo sapiens (Human), UniProt Q9H3R0)
# Sequence (Q9H3R0 2-372): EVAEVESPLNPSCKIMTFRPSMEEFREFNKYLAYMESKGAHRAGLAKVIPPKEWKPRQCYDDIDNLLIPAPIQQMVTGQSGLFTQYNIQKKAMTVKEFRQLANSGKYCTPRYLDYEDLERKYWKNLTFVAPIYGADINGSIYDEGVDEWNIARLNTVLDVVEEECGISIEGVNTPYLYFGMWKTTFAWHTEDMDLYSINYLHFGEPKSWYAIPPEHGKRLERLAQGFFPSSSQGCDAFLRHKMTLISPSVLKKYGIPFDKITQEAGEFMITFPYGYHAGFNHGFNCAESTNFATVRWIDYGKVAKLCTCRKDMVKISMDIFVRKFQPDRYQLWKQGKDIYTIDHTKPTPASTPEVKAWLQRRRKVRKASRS
# measurement protocol: In vitro enzyme inhibition assay for JMJD2C activity (TR-FRET)
# Assay type: biochemical
# details: Table 5; one class given per A and B pair

// known answers, use as guide
CCc1ccc(N(C)c2ccc3c(c2)CCN(C)[C@@H]3CNc2cnccc2C(=O)O)cc1 [Example 13B]; 100 to 1000 nM
CCc1ccccc1-c1ccc2c(c1)CCN[C@@H]2CNc1cnccc1C(=O)O; 1000 to 10000 nM
Cc1ccccc1-c1ccc2c(c1)CCN[C@H]2CNc1cnccc1C(=O)O; 1000 to 10000 nM
CC(C)c1ccc(N(C)c2ccc3c(c2)CCN[C@H]3CNc2cnccc2C(=O)O)cc1; 100 to 1000 nM
CCc1ccc(N(C)c2ccc3c(c2)CCN[C@H]3CNc2cnccc2C(=O)O)cc1 [Example 10A]; 1000 to 10000 nM

The recorded IC50 for Cc1ccccc1-c1ccc2c(c1)CCN(C)[C@@H]2CNc1cnccc1C(=O)O [Example 12B] is 1000 to 10000 nM

The recorded IC50 for Cc1ccc(N(C)c2ccc3c(c2)CCN(C)[C@@H]3CNc2cnccc2C(=O)O)cc1 [Example 11B] is 100 to 1000 nM

The recorded IC50 for Cc1ccc(N(C)c2ccc3c(c2)CCN(C)[C@H]3CNc2cnccc2C(=O)O)cc1 [Example 11A] is 100 to 1000 nM

###

Listed here are compounds together with their documented IC50.
# measured on: JMJD3 (Homo sapiens, UniProt O15054)
# measurement protocol: In vitro enzyme inhibition assay for JMJD3 activity (TR-FRET)
# Assay type: biochemical
# details: Table 5; one class given per A and B pair

CC(C)c1ccc(N(C)c2ccc3c(c2)CCN[C@H]3CNc2cnccc2C(=O)O)cc1; 0.1 to 1 µM
CCCc1ccc(N(C)c2ccc3c(c2)CN(C)[C@H]3CNc2cnccc2C(=O)O)cc1 [Example 20A]; 1 to 10 µM

The recorded IC50 for Cc1cc(OCC2CC2)ccc1-c1ccc2c(c1)CCN[C@H]2CNc1cnccc1C(=O)O is > 10 µM

The recorded IC50 for Cc1ccccc1-c1ccc2c(c1)CCN[C@@H]2CNc1cnccc1C(=O)O is 1 to 10 µM

The recorded IC50 for CCCc1ccc(N(C)c2ccc3c(c2)CN(C)[C@@H]3CNc2cnccc2C(=O)O)cc1 [Example 20B] is 1 to 10 µM

###

Listed here are compounds together with their documented pIC50.
# measured on: JMJD2C (Homo sapiens (Human))
# measurement protocol: In vitro enzyme inhibition assay for JMJD2C activity (TR-FRET)
# Type: biochemical
# details: Table 5; one class given per A and B pair
pIC50: −log10 of the molar value.

// known answers, use as guide
CCc1ccc(N(C)c2ccc3c(c2)CN(C)[C@H]3CNc2cnccc2C(=O)O)cc1 [Example 19A]; 6.00 to 7.00
Cc1cccc(C)c1-c1ccc2c(c1)CCN(C)[C@@H]2CNc1cnccc1C(=O)O [Example 17B]; 5.00 to 6.00
Cc1cc(OCC(F)(F)F)ccc1-c1ccc2c(c1)CN[C@@H]2CNc1cnccc1C(=O)O; 5.00 to 6.00
CCc1ccc(N(C)c2ccc3c(c2)CN(C)[C@@H]3CNc2cnccc2C(=O)O)cc1 [Example 19B]; 6.00 to 7.00
CCc1ccccc1-c1ccc2c(c1)CN(C)[C@H]2CNc1cnccc1C(=O)O [Example 22A]; 6.00 to 7.00

The recorded pIC50 for CCCc1ccc(N(C)c2ccc3c(c2)CN(C)[C@H]3CNc2cnccc2C(=O)O)cc1 [Example 20A] is 6.00 to 7.00

###

# measured on: Jarid1B (Homo sapiens (Human))
# measurement protocol: In vitro enzyme inhibition assay for Jarid1B activity (TR-FRET)
# Assay type: biochemical
# details: Table 5; one class given per A and B pair
pIC50: −log10 of the molar value.
readout: pIC50

Cc1ccc(N(C)c2ccc3c(c2)CCN[C@H]3CNc2cnccc2C(=O)O)cc1 [Example 1B]; ≥ 7.00

The recorded pIC50 for Cc1ccccc1-c1ccc2c(c1)CCN(C)[C@@H]2CNc1cnccc1C(=O)O [Example 12B] is ≥ 7.00

The recorded pIC50 for CCc1ccccc1-c1ccc2c(c1)CN(C)[C@H]2CNc1cnccc1C(=O)O [Example 22A] is ≥ 7.00

The recorded pIC50 for CCc1ccc(N(C)c2ccc3c(c2)CN(C)[C@@H]3CNc2cnccc2C(=O)O)cc1 [Example 19B] is ≥ 7.00

The recorded pIC50 for CCCc1ccc(N(C)c2ccc3c(c2)CCN(C)[C@H]3CNc2cnccc2C(=O)O)cc1 [Example 14A] is ≥ 7.00

The recorded pIC50 for CCc1ccccc1-c1ccc2c(c1)CCN(C)[C@H]2CNc1cnccc1C(=O)O [Example 15A] is ≥ 7.00

The recorded pIC50 for Cc1ccc(N(C)c2ccc3c(c2)CN(C)[C@@H]3CNc2cnccc2C(=O)O)cc1 [Example 18B] is ≥ 7.00

The recorded pIC50 for Cc1ccc(N(C)c2ccc3c(c2)CN(C)[C@H]3CNc2cnccc2C(=O)O)cc1 [Example 18A] is ≥ 7.00

###

# measured on: JMJD3 (Homo sapiens, UniProt O15054)
# measurement protocol: In vitro enzyme inhibition assay for JMJD3 activity (TR-FRET)
# Assay type: biochemical
# details: Table 5; one class given per A and B pair
pIC50: −log10 of the molar value.
readout: pIC50

// known answers, use as guide
CCc1ccccc1-c1ccc2c(c1)CN(C)[C@@H]2CNc1cnccc1C(=O)O [Example 22B]; 5.00 to 6.00
Cc1cc(OCC(F)(F)F)ccc1-c1ccc2c(c1)CCN[C@@H]2CNc1cnccc1C(=O)O; 5.00 to 6.00

The recorded pIC50 for Cc1ccc(N(C)c2ccc3c(c2)CN(C)[C@H]3CNc2cnccc2C(=O)O)cc1 [Example 18A] is 5.00 to 6.00

###

# measured on: UniProtKB Q9H3R0
# measurement protocol: In vitro enzyme inhibition assay for JMJD2C activity (TR-FRET)
# Type: biochemical
# details: Table 5; one class given per A and B pair
Listed here are compounds together with their documented IC50.

The recorded IC50 for CCCc1ccc(N(C)c2ccc3c(c2)CCN(C)[C@@H]3CNc2cnccc2C(=O)O)cc1 [Example 14B] is 1 to 10 µM

The recorded IC50 for Cc1ccc(N(C)c2ccc3c(c2)CN(C)[C@@H]3CNc2cnccc2C(=O)O)cc1 [Example 18B] is 0.1 to 1 µM

The recorded IC50 for CC(C)c1ccc(N(C)c2ccc3c(c2)CN[C@H]3CNc2cnccc2C(=O)O)cc1 is 1 to 10 µM

###

Listed here are compounds together with their documented pIC50.
# measured on: UniProt Q9H3R0
# measurement protocol: In vitro enzyme inhibition assay for JMJD2C activity (TR-FRET)
# Type: biochemical
# details: Table 5; one class given per A and B pair
pIC50: −log10 of the molar value.

Cc1ccc(N(C)c2ccc3c(c2)CCN[C@@H]3CNc2cnccc2C(=O)O)cc1 [Example 1A]; 6.00 to 7.00
CC(C)c1ccccc1-c1ccc2c(c1)CCN(C)[C@@H]2CNc1cnccc1C(=O)O [Example 16B]; 5.00 to 6.00
CCc1ccccc1-c1ccc2c(c1)CN(C)[C@@H]2CNc1cnccc1C(=O)O [Example 22B]; 6.00 to 7.00
Cc1ccccc1-c1ccc2c(c1)CN(C)[C@@H]2CNc1cnccc1C(=O)O [Example 21B]; 6.00 to 7.00

Consider the record given below.
CCCc1ccc(N(C)c2ccc3c(c2)CCN(C)[C@H]3CNc2cnccc2C(=O)O)cc1 [Example 14A] tested on UniProt Q9H3R0 gave pIC50: 5.00 to 6.00
